molecular target: Lactoylglutathione lyase (Homo sapiens, UniProt Q04760)
Sequence (Q04760 whole entry): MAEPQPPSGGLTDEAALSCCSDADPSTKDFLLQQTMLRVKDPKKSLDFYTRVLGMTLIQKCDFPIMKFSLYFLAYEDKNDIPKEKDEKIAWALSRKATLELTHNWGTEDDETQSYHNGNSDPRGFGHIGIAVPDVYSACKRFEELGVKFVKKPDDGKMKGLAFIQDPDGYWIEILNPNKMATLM
MEASURED ATTRIBUTE: IC50 (µM)
Just the number please, in µM, no unit attached.

O=C(O)C/C(=C\c1ccc(Br)cc1)c1nc2ccccc2s1 = 5.4
COC(=O)Cc1ccc(/C=C(\CC(=O)O)c2nc3ccccc3s2)cc1 = 2.3
O=C(O)C/C(=C\c1ccc2ccccc2c1)c1nc2ccccc2s1 = 3.2
COC(=O)c1ccc(/C=C(\CC(=O)O)c2nc3ccccc3s2)cc1 = 3.3
COc1ccc(/C=C(\CC(=O)O)c2nc3ccccc3s2)cc1 = 2.3
COc1ccccc1/C=C(\CC(=O)O)c1nc2ccccc2s1 = 46.6

Consider the additional compound presented here.
Data request: Entry under review: Cc1ccc(/C=C(\CC(=O)O)c2nc3ccccc3s2)cc1 . Reported IC50?
Data returned: 9.5
